target: CYP2A13 (Homo sapiens, UniProt Q16696); test: CYP2A13 inhibition, coumarin to 7-hydroxy-coumarin (Umbelliferone) fluorescence assay in microsomes
Sequence (Q16696 whole entry): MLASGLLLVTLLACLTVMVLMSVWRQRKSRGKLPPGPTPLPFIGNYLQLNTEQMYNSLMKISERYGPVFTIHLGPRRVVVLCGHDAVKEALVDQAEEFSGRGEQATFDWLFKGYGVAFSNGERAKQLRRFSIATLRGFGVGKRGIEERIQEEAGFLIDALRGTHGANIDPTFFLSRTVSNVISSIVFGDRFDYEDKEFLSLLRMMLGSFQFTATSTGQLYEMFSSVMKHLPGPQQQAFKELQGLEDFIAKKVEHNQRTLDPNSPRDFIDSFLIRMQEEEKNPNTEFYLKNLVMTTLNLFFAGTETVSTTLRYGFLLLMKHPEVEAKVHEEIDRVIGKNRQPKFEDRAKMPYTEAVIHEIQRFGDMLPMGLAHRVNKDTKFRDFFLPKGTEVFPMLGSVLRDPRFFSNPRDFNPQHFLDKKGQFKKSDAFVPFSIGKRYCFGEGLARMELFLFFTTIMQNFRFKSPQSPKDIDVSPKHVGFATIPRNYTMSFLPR
Attribute: IC50
Report only the number, with the unit µM understood.

Example entries and their recorded answers appear below.
# compound, measure name, unit, reported
measured = [
    ("c1nc2c(o1)CCCCCCCCC2", "IC50", "µM", 2),
    ("CCCCCC1OC(=O)CC1C (stereo not shown) [Compound ID 12, 4-methyl-5-pentyldihydrofuran-2(3H)-one]", "IC50", "µM", 1.7),
    ("O=C1CCC2CCCCC2O1 (stereo not shown) [Compound ID 45, octahydrocoumarin]", "IC50", "µM", 6.6),
    ("CCCCCCC1CCC(=O)O1 (stereo not shown) [Compound ID 47, 5-hexyldihydrofuran-2(3H)-one]", "IC50", "µM", 7.2),
    ("c1cn2c(n1)CCCCCCCCCC2", "IC50", "µM", 8.5),
]

## Input If you can, please state the reported IC50 value of c1nc2c(o1)CCCCCCCCCC2 .
## Output 2

## Input State the recorded IC50 for this entry: c1nnc2n1CCCCCCCCCCC2
## Output 6.3

## Input Name the reported IC50 value associated with the compound CCCCCC1=CCCC1=O
## Output 8.3

## Input Which IC50 reading was recorded for the compound CCCCCCC1=CCCC1=O ?
## Output 4.5

## Input Which IC50 is listed for CC/C=C\Cn1ccnc1 [Compound ID 54, (Z)-1-(pent-2-enyl)-1H-imidazole] ?
## Output 9.4

## Input Given CC/C=C/CC1=C(CC(=O)OC)CCC1=O , state its recorded IC50.
## Output 8.3

## Input What value of measured IC50 is listed for CC/C=C\CCn1ccnc1 [Compound ID 23, (Z)-1-(hex-3-enyl)-1H-imidazole] ?
## Output 3.4

## Input # lookup: IC50 of CCCCCCN1C(=O)CCC1C (stereo not shown)
## Output 7.4

## Input Returns the measured IC50 for the input compound. Input: CCC=CCCC1(C)CCC(=O)O1 (mixture of isomers)
## Output 12.5

## Input I have this compound here, CCCCC/C=C/CC1CCCC1=O (stereo not shown) [Compound ID 18, (E)-2-(oct-2-enyl)cyclopentanone] , and I need its recorded IC50.
## Output 2.8

## Input May I ask what IC50 has been recorded for CC/C=C\CCOC(=O)C1CCCC1=O (stereo not shown) ?
## Output 12.7
